- experimental_target: T1, human MSLN-R1-his protein (human, UniProt Q13421 296-390)
- T1 construct: also called human MSLN-R1 protein; hMSLN-R1-his; not shown: His tag
- T1 sequence (Q13421 other isoform, or with tags, fused parts or gaps): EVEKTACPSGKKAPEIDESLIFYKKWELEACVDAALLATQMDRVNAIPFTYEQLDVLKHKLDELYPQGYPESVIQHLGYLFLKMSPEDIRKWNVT
- test_name: ELISA, coated antigen; antibody 1 nM
metric_name: OD450 (OD450)
Field format: number, assumed OD450, no unit text.

Ask: OD450 for S009-F5-9.16 (antibody, human IgG1, kappa, V domains shown, Human-murine chimeric antibody, human IgG1/kappa constant regions) VH: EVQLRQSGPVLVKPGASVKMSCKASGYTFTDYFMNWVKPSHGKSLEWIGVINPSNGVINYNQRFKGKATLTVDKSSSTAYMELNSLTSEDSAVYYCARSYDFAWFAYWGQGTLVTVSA VL: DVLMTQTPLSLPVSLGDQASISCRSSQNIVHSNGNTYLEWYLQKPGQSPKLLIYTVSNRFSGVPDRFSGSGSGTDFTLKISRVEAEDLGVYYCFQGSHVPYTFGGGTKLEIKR ?
Result: 0.04
